- Test system: whole blood
- test summary: Cell separation on whole blood (Polymorphprep gradient), activity in separated fractions
- Assay type: cell-based, human
- Design: tested at 2 mCi (74 MBq) in 3 mL blood
- condition details: fraction: erythrocytes
readout type: Cell separation on whole blood (activity %): Erythrocytes
Give bare numbers, in %.

compound	measured
Cc1ccc(C(=S)S[S][99Tc]([S]SC(=S)c2ccc(C)cc2)[S]C(=S)c2ccc(C)cc2)cc1 [Example 6, [^99mTc(4-MePhCS3)2(4-MePhCS2)]]	20
CCOc1ccc(C(=S)S[S][99Tc]([S]SC(=S)c2ccc(OCC)cc2)[S]C(=S)c2ccc(OCC)cc2)cc1 [Example 14, [^99mTc(4-EtOPhCS3)2(4-EtOPhCS2)]]	22
S=C(S[S][99Tc]([S]SC(=S)c1cccc2ccccc12)[S]C(=S)c1cccc2ccccc12)c1cccc2ccccc12 [Example 23, [^99mTc(1-naphCS3)2(1-naphCS2)]]	46

For each entry beneath this line, provide reported Cell separation on whole blood (activity %): Erythrocytes.
1. S=C(S[S][99Tc]([S]SC(=S)c1cccc2ccccc12)[S]C(=S)c1cccc2ccccc12)c1cccc2ccccc12 [Example 24, [^99mTc(1-naphCS3)2(1-naphCS2)]]
2. Fc1ccc(C(=S)S[S][99Tc]([S]SC(=S)c2ccc(F)cc2)[S]C(=S)c2ccc(F)cc2)cc1 [Example 19, [^99mTc(4-FPhCS3)2 (4-FPhCS2)]]

Result:
[46, 15]

* * *

- System: human blood
- test summary: Labeling of blood cells: yield of cell labeling in whole blood
- Assay type: cell-based
- condition details: 2 mCi (74 MBq) in 3 mL fresh human blood, 10 minutes, after washings
readout type: Yield (±3%) of cell labeling
Numbers only, in %.

molecule	measurement target	unit descriptor	Yield (±3%) of cell labeling
CCc1ccccc1C(=S)S[S][99Tc]([S]SC(=S)c1ccccc1CC)[S]C(=S)c1ccccc1CC [Example 10, [^99mTc(2-EtPhCS3)2(2-EtPhCS2)]]	human blood	%	92

// input: 2 molecules below; output: Yield (±3%) of cell labeling for each
1. Cc1cc(C)c(C(=S)S[S][99Tc]([S]SC(=S)c2cc(C)c(C)cc2C)[S]C(=S)c2cc(C)c(C)cc2C)cc1C [Example 22]
2. S=C(CCc1ccccc1)S[S][99Tc]([S]SC(=S)CCc1ccccc1)[S]C(=S)CCc1ccccc1 [Example 29, [^99mTc(PhCH2CH2CS3)2(PhCH2CH2CS2)]]

Result:
95
43

* * *

- System: human blood
- test summary: Labeling of blood cells: yield of cell labeling in whole blood
- Format: cell-based
- condition details: 2 mCi (74 MBq) in 3 mL fresh human blood, 10 minutes, after washings
Assignment: determine reported Yield (±3%) of cell labeling for the given molecules.
Answers are plain numbers, in %.

molecule	measurement target	unit descriptor	Yield (±3%) of cell labeling
CCCCc1ccc(C(=S)S[S][99Tc]([S]SC(=S)c2ccc(CCCC)cc2)[S]C(=S)c2ccc(CCCC)cc2)cc1 [Example 12, [^99mTc(4-nBuPhCS3)2(4-nBuPhCS2)]]	human blood	%	100
S=C(S[S][99Tc]([S]SC(=S)c1cccc2ccccc12)[S]C(=S)c1cccc2ccccc12)c1cccc2ccccc12 [Example 23, [^99mTc(1-naphCS3)2(1-naphCS2)]]	human blood	%	71

From here, focus on the item given below.
Problem: What value of Yield (±3%) of cell labeling has been recorded for this entry: CCOc1ccc(C(=S)S[S][99Tc]([S]SC(=S)c2ccc(OCC)cc2)[S]C(=S)c2ccc(OCC)cc2)cc1 [Example 14, [^99mTc(4-EtOPhCS3)2(4-EtOPhCS2)]]
Result: 97

Reference for the values: patent US6469146B1
